The reported numbers originate from ChEMBL document CHEMBL1800012.

- ASSAY_OVERVIEW: Clearance in rat at 1 mg/kg, iv
- Format: ADME, organism-based
- Parameters: dose 1 mg/kg, route intravenous
- CONDITIONS_USED: in vivo
Items are presented alongside their recorded clearance.
REPORTED_METRIC: clearance (mL/min/kg)

> print(dat)
                              smiles.string  reported.metric  value
1  CCS(=O)(=O)c1ccc2c(c1)nc(C(C)(C)C)n2CC1CC1        clearance     20
2  CCS(=O)(=O)c1ccc2c(c1)nc(C(C)(C)C)n2C[C@@H]1CCCO1        clearance   27.1
